All values here come from patent US20110135636A1.

# tested target: T1, wild type full length EGFR purified from A431 cells (human, UniProt P00533 25-1210)
# T1 construct: mature; Bought; coated on ELISA wells; also called full length EGFR receptor antigen; Sigma E3641
# measurement protocol: competition ELISA, competitor Ab-11
# Design: concentration or dose not given beside the values
measured quantity: % inhibition

>  <binder>
antibody 992 (antibody, human IgG1, kappa, V domains shown, Chimeric mouse/human IgG1 kappa; the VL entry includes the human kappa constant region) VH: EVQLQQPGSELVRPGASVKLSCKASGYTFTSYWMHWVKQRPGQGLEWIGNIYPGSRSTNYDEKFKSKATLTVDTSSSTAYMQLSSLTSEDSAVYYCTRNGDYYVSSGDAMDYWGQGTSVTVSS VL: DIQMTQTTSSLSASLGDRVTISCRTSQDIGNYLNWYQQKPDGTVKLLIYYTSRLHSGVPSRFSGSGSGTDFSLTINNVEQEDVATYFCQHYNTVPPTFGGGTKLEIKR

>  <% inhibition>
-2%

$$$$
>  <binder>
antibody 1257 (antibody, human IgG1, kappa, V domains shown, Chimeric IgG1 kappa) VH: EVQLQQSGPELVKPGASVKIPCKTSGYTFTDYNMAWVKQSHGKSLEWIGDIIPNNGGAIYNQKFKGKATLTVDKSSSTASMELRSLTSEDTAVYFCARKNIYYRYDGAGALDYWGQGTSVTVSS VL: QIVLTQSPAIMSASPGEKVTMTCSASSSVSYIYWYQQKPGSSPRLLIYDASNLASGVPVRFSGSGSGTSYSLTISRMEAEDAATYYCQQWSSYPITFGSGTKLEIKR

>  <% inhibition>
92%

$$$$
>  <binder>
antibody 1042 (antibody, human IgG1, kappa, V domains shown, Chimeric IgG1 kappa; RA- left out of the VH entry) VH: QVQLQQPGAELVKPGASVKLSCKASGYTFTSHWMHWVQQRPGQGLEWIGEIHPSNGRTNYNEKFKNKATLTVDKSPSTAYMQLSSLTSEDSAVYYCARYYGYDDAMDYWGQGTSVTVSS VL: DIVMTQAAFSNPVTLGTSASISCRSSKSLLHSNGITYLYWYLQKPGQSPQLLIYQMSNLASGVPDRFSSSGSRTDFTLRISRVEAEDVGVYYCAQNLELPYTFGGGTKLEIKR

>  <% inhibition>
7%

$$$$
>  <binder>
antibody 1260 (antibody, human IgG1, kappa, V domains shown, Chimeric IgG1 kappa) VH: QVQLKESGPGLVAPSQSLSITCTVSGFSLTTYGVHWVRQPPGKGLEWLGVIWAGGSTNYNSALMSRLSIKKDNSKSQVFLKMNSLQTDDTAMYYCARAYGYNFDYWGQGTTLTVSS VL: DIQMTQTTSSLSASLGDRVTISCSASQGITNYLNWYQQKPDGTVKLLIYYSSSLHSGVPSRFSGSGSGTDYSLTISNLEPEDIATYYCQQYSEIPYTFGGGTKLELKR

>  <% inhibition>
92%

$$$$
>  <binder>
antibody 1030 (antibody, human IgG1, kappa, V domains shown, Chimeric IgG1 kappa) VH: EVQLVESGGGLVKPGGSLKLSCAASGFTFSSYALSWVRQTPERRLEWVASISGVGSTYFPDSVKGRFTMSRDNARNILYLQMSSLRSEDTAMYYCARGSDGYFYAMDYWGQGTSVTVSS VL: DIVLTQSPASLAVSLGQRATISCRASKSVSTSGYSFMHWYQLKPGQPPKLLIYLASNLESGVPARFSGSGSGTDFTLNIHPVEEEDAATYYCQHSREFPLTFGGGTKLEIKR

>  <% inhibition>
-20%

$$$$
>  <binder>
antibody 1344 (antibody, human IgG1, kappa, V domains shown, Chimeric IgG1 kappa) VH: QVQLKESGPGLVAPSQSLSITCTVSGFSLTIYGVHWVRQPPGKGLEWLGVIWAGGNTNYNSALMSRLSISKDNSKSQVFLKMNSLQTDDTAMYFCARGYGYNLDYWGQGTTLTVSS VL: DIQMTQTTSSLSASLGDRVTISCSASQGISNYLNWYQQKPDGTVKLLIYYTSSLHSGVPSRFSGSGSGTDYSLTISNLEPEDIATYYCQQYSKLPYTFGGGTKLEIKR

>  <% inhibition>
82%

$$$$
>  <binder>
antibody 1308 (antibody, human IgG1, kappa, V domains shown, Chimeric IgG1 kappa) VH: EVQLQQSGAELVRPGSSVKISCKASGYAFSSYWMNWVRQRPGQGLEWIGQIYPGDGDTNYNGKFKGRATLTANKSSSTAYMQLSSLTSEDSAVYFCARRASSLYDVYPYYFDYWGQGTTLTVSS VL: DIQMTQTTSSLSASLGDRVTISCRASQDISNYLNWYQQKPDGTVKVLIYYTSRLHSGVPSRFSGSGSGTDYSLTISNLEQEDIATYFCQQGNTLPYTFGGGTKLEIKR

>  <% inhibition>
91%

$$$$
>  <binder>
antibody 1284 (antibody, human IgG1, kappa, V domains shown, Chimeric IgG1 kappa) VH: QVQLQQPGAELVKPGASVKLSCKASGYTFTSDWMHWMKQRPGQGLEWIGEINPSNGRSSYNEKFKSKATLTVDKSSSTAYMQLSSLTSEDSAVYYCARIGGIYVETYWGQGTLVTVSS VL: DIVLTQSPASLAVSLGQRATISCRASQSVSTSTYSYMHWYQQKSGQPPKLLIKYASNLESGVPARFSGSGSGTDFTLNIHPVEEEDTATYYCQHSWEIPWTFGGGTKLEIKR

>  <% inhibition>
52%

$$$$
>  <binder>
antibody 1024 (antibody, human IgG1, kappa, V domains shown, Chimeric IgG1 kappa) VH: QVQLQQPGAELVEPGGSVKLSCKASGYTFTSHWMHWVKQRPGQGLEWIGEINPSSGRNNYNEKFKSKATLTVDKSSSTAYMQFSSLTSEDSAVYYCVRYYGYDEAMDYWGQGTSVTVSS VL: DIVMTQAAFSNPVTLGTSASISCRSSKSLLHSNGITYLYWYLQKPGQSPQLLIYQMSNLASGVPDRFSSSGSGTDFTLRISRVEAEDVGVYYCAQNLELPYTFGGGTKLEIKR

>  <% inhibition>
18%

$$$$
>  <binder>
antibody 1208 (antibody, human IgG1, kappa, V domains shown, Chimeric IgG1 kappa; also called clone 1208) VH: EVQLVESGGGLVKPGGSLKLSCAASGFAFSSYDMSWVRQTPEKRLEWVAYIGSGDDNTHYPDSVKGRFTISRHNAKNTLYLQMSSLKSEDTAMYYCARQKYGNYGDTMDYWGQGTSVTVSS VL: DVVMTQTPLSLPVSLGDQASISCRSSQSLVHSNGNTYLHWYLQKPGQSPKLLIYKVSNRFSGVPDRFSGSGSGTDFTLKISRVEAEDLGVYFCSQSTHVPTFGGGTKLEIKR

>  <% inhibition>
-3%

$$$$

# ---- query binder ----
% inhibition in this record for antibody 1261 (antibody, human IgG1, kappa, V domains shown, Chimeric IgG1 kappa) VH: EVQLVESGGGLVKPGGSLKLSCAVSGFTFSSYVMSWVRQTPEKRLEWVATITSGGRNIYYLDSVKGRFTISRDNAKNTLYLQMSSLRSEDTAMYYCARHEDYRYDGYYAMDYWGQGTSVTVSS VL: QIVLTQSPAIMSASPGEKVTITCSASSSVSYMHWFQQKPGTSPKLWIYSTSNLASGVPARFSGSGSGTSYSLTISRMEAEDAATYYCQQRSSYPYTFGGGTKLELKR : 88%
